# tested target: Recombinant human TDO comprising amino acids 19-407 (Homo sapiens (Human))
# Sequence (P48775 19-406 limits assumed): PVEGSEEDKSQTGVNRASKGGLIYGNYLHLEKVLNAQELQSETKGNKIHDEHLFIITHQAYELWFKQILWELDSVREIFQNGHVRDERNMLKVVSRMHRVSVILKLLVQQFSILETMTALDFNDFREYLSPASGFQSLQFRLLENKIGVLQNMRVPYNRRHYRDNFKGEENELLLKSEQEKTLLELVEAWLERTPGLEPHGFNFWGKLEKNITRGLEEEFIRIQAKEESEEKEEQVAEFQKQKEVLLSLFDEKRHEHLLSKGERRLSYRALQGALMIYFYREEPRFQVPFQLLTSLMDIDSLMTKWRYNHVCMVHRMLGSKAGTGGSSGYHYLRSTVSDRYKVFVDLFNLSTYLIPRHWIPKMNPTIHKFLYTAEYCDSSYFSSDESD
# assay name: TDO2 enzymatic assay (TDO inhibitory activity)
# Format: biochemical
# assay context: 15 nM enzyme, 200 μM L-tryptophan, pH7, 30 min pre-incubation, NFK quantified by LCMS; mean values if measured multiple times; read-out: hTDO activity (IC50 in nM)
# Experimental: 2) Testing Compounds for TDO Inhibitory Activity in a TDO2 Enzymatic Assay: Recombinant human TDO comprising amino acids 19-407 with a N-terminal hexahistidine tag expressed in E. coli and purified to homogeneity is incubated at a final concentration of 15 nM in assay buffer consisting of 75 mM phosphate buffer at pH7 supplemented with 100 μM ascorbic acid, 50 U/ml Catalase, 0.01% BSA, and 0.01% Tween 20 (protocol modified from Seegers et al, JBS 2014). […]
recorded metric: IC50 (nM)

COc1cccc(CC(O)c2c(C)sc3cncn23)c1 (racemic) [Example 62]; 7160
OC(c1c(C2CC2)sc2cncn12)C12CC(c3ccccc3)(C1)C2 (racemic) [Example 191]; 1270
OC(c1cccs1)c1c(C2CC2)sc2cncn12 (racemic) [Example 171]; 1580
CC1CCC(CC(O)c2c(C3CC3)sc3cncn23)CC1 (racemic) [Example 49]; 638
OC(c1c(C2CCCC2)sc2cncn12)C1CCCCC1 (racemic) [Example 9]; 193

[I] CC(C)(C)C1CCC(CC(O)c2c(C3CC3)sc3cncn23)CC1 (racemic) [Example 74]
[II] CC1(C)CC(C(O)c2c(C3CC3)sc3cncn23)C1 (racemic) [Example 36]
Hi there! Just curious which has the higher IC50 between I and II . Refer to your chosen entry by its label in the reply.
I

[1] OC(c1c(C2CC2)sc2cncn12)C1CCC(Cc2ccccc2)C1 (stereo not drawn) [Example 77]
[2] CC1(C)CCC(C(O)c2c(C(F)(F)F)sc3cncn23)C1 (stereo not drawn) [Example 108]
Field: lower recorded IC50 (choose 1 or 2 ) Return value: the label identifying the chosen record.
2
(2: 922 nM, 1: 3900 nM)
